Test system: spinal nerve ligation (SNL) rats
Assay: In vivo pain model: spinal nerve ligation (SNL), 50% withdrawal threshold with von Frey filaments
Details: intraperitoneal dose of approximately 30 mg/kg
MEASUREMENT_NAME: effectiveness for treating pain / activity in the in vivo pain model

Please review the entries below; each comes with its answer.
CC(N)(COc1c(F)cc(F)cc1F)COc1c(F)cc(F)cc1F [Compound 6] ... not active
Cc1cccc(Cl)c1OCC(C)(N)COc1c(C)cccc1Cl [Compound 5] ... some activity
Cc1cccc(C)c1OCC(N)COc1c(F)cc(F)cc1F (stereo not drawn) [Compound 11] ... some activity
Cc1ccccc1OCC(N)COc1ccccc1C [Compound 8] ... not active

Please turn your attention to the following entry.
## Input What value of effectiveness for treating pain / activity in the in vivo pain model has been reported for the following molecule? Cc1cccc(C)c1OCC(COc1c(C)cccc1C)NCCc1ccncc1 [Compound 79]
## Output not active
